The reported numbers originate from BindingDB's records for doi:10.7270/Q2251GJ9.

# Subject of test: Sphingosine 1-phosphate receptor 1 (Homo sapiens, UniProt P21453)
# Sequence (P21453 whole entry): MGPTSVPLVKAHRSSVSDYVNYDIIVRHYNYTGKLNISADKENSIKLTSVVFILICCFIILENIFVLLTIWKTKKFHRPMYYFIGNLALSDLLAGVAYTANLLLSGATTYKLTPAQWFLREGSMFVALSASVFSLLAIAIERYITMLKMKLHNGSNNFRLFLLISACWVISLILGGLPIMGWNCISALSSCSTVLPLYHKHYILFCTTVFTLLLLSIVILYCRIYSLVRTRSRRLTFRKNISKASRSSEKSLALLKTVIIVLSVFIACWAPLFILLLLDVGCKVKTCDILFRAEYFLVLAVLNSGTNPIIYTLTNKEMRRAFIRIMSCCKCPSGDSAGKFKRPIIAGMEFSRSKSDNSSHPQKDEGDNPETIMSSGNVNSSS
# Experiment summary: direct activation of human S1P1 – cell-based, agonist mode, 60K MLSMR set, dose response (AID 468)
Result type: EC50 (µM)

{"Compound": "Fc1ccc2[nH]c3c(N4CCN(c5ccccc5)CC4)ncnc3c2c1", "Relation symbol": ">", "Numeric value": 3}
{"Compound": "CCOc1nc(C)ccc1-c1noc(-c2ccncc2)n1", "Relation symbol": "=", "Numeric value": 5.42}
{"Compound": "COc1cc(CSc2nnnn2-c2ccc(C)cc2)cc(OC)c1OC", "Relation symbol": "=", "Numeric value": 2.26}
{"Compound": "O=C(Nc1ccc(-c2noc(CCc3ccccc3)n2)cc1)c1cccnc1", "Relation symbol": "=", "Numeric value": 3.6}
{"Compound": "CCn1nc(-c2ccccc2)nc2c(=O)n(C)c(=O)nc1-2", "Relation symbol": "=", "Numeric value": 3.55}
{"Compound": "CC1Cc2ccccc2N1c1ncnc2nc[nH]c12 (stereo not given)", "Relation symbol": "=", "Numeric value": 3.78}
{"Compound": "CCC(C)c1ccc2oc(-c3ccc(NC(=O)Cn4cnc5c(=O)n(C)c(=O)n(C)c54)cc3)nc2c1 (stereo not given)", "Relation symbol": "=", "Numeric value": 2.02}
{"Compound": "CC(C)(C)OC(=O)N[C@@H](Cc1ccccc1)c1nnc(S(=O)(=O)Cc2cccc(F)c2)o1", "Relation symbol": "=", "Numeric value": 8.51}
{"Compound": "COc1ccccc1Oc1ccc2c(c1)C(=O)N(c1ccc(O)cc1)C2=O", "Relation symbol": "=", "Numeric value": 0.217}
{"Compound": "CCOc1ccc(-c2nnc(-c3cccs3)o2)cc1OCC", "Relation symbol": "=", "Numeric value": 5.93}

###

# Subject of test: Sphingosine 1-phosphate receptor 1 (Homo sapiens)
# Experiment summary: direct activation of human S1P1 – cell-based, agonist mode, 60K MLSMR set, dose response (AID 468)
pEC50: −log10 of the molar value.

{"Molecule": "CCc1oc2ccccc2c1C(=O)c1cc(Br)c(O)c(Br)c1", "Relation symbol": "=", "pEC50": 5.23}
{"Molecule": "O=C(CSCC(=O)N1CCCCC1)Nc1nc(-c2cccs2)cs1", "Relation symbol": "<", "pEC50": 4.52}
{"Molecule": "O=C1C2CCCN2C(c2cccnc2)N1c1cccc(Cl)c1 (stereo unspecified)", "Relation symbol": "<", "pEC50": 4.02}
{"Molecule": "c1ccc2c(c1)oc1c(NCc3ccc4c(c3)OCO4)ncnc12", "Relation symbol": "=", "pEC50": 5.25}
{"Molecule": "CCCc1cc(C(=O)N2CCN(C(c3ccccc3)c3ccccc3)CC2)no1", "Relation symbol": "=", "pEC50": 5.10}
{"Molecule": "CN=C(NC#N)SCC(=O)c1ccc(Cl)cc1Cl", "Relation symbol": "=", "pEC50": 5.34}
{"Molecule": "O=C(Nc1ccc(OC(F)F)c(Cl)c1)Nc1ccc2c(c1)OCO2", "Relation symbol": "=", "pEC50": 5.11}
{"Molecule": "CN(C)CC(C(=O)c1ccccc1)c1ccccc1 (stereo unspecified)", "Relation symbol": "=", "pEC50": 5.01}
{"Molecule": "Cc1cc(N2CCN(c3nc4ccccc4s3)CC2)n2ncnc2n1", "Relation symbol": "=", "pEC50": 5.10}
{"Molecule": "CN1/C(=C/C(=O)c2nc(S(C)(=O)=O)ncc2Cl)C(C)(C)c2ccccc21", "Relation symbol": "=", "pEC50": 5.06}
{"Molecule": "Cc1cc(NC(=O)c2oc3ccccc3c2C)ccc1-n1cnnn1", "Relation symbol": "=", "pEC50": 5.13}

###

Listed here: items and their measured pEC50.
# Subject of test: Sphingosine 1-phosphate receptor 1 (Homo sapiens, UniProt P21453)
# Experiment summary: direct activation of human S1P1 – cell-based, agonist mode, 60K MLSMR set, dose response (AID 468)
pEC50: −log10 of the molar value.

{"Compound": "Cn1c(=O)oc2cc(S(=O)(=O)N3CCCC(C(=O)N4CC=C(c5ccccc5)CC4)C3)ccc21 (configuration not stated)", "Relation symbol": "=", "pEC50": 5.02}
{"Compound": "O=C(c1ccc(Cl)s1)N1CCN(c2nc3ccccc3s2)CC1", "Relation symbol": "<", "pEC50": 4.52}
{"Compound": "CC(=N)C(C#N)C(=O)CSc1nnc(SCc2ccc(Cl)cc2)s1 (configuration not stated)", "Relation symbol": "=", "pEC50": 5.05}
{"Compound": "OC(c1cccc(OCc2ccccc2)c1)c1nnc(-c2ccccc2)o1 (configuration not stated)", "Relation symbol": "=", "pEC50": 5.68}
{"Compound": "COc1ccc(CNC(=O)c2cc3c(C)nc4ccccc4c3o2)c(OC)c1", "Relation symbol": "=", "pEC50": 5.38}
{"Compound": "Nc1nonc1C(=O)NCCNCc1cc(Br)ccc1OCc1ccccc1F", "Relation symbol": "=", "pEC50": 5.09}
{"Compound": "CCOC(=O)Nc1ccc2c(c1)N(C(=O)CCN(C)C)c1ccccc1S2", "Relation symbol": "=", "pEC50": 4.47}
{"Compound": "O=C(c1cc(-c2ccc(O)cc2)on1)N1CCc2ccccc2C1", "Relation symbol": "=", "pEC50": 5.28}
{"Compound": "CCN(C(=O)c1ccc(C(C)(C)C)cc1)c1nnc(Cn2nnc3ccccc32)s1", "Relation symbol": "=", "pEC50": 5.83}
{"Compound": "Cc1ccc(C(C)C)c(OCc2nc(-c3nonc3N)no2)c1", "Relation symbol": "=", "pEC50": 5.79}
{"Compound": "COc1ccc(C(=O)C(CN2CCOCC2)c2ccccc2)cc1F (configuration not stated)", "Relation symbol": "=", "pEC50": 4.65}
{"Compound": "O=C(CSc1nnc(Cc2csc(Nc3cccc(Cl)c3)n2)o1)N1CCc2ccccc21", "Relation symbol": "<", "pEC50": 4.02}
{"Compound": "Cc1cc(N2CCN(C/C=C/c3ccccc3)CC2)n2ncnc2n1", "Relation symbol": "<", "pEC50": 4.52}
{"Compound": "Clc1ccc(CSc2nnc(-c3ccncc3)o2)cc1", "Relation symbol": "=", "pEC50": 5.41}
{"Compound": "CCCCNc1cc(C)nc(NCc2ccccc2)n1", "Relation symbol": "=", "pEC50": 5.32}
{"Compound": "CC(C)OCCCNc1ncnc2c1[nH]c1ccc(F)cc12", "Relation symbol": "=", "pEC50": 5.36}
{"Compound": "Cc1ccc(-c2nc(CSCC(=O)N3CCN(c4ccccn4)CC3)c(C)o2)cc1", "Relation symbol": "=", "pEC50": 5.26}
{"Compound": "Cc1ccc(-n2c(C)cc(C(=O)CSc3nnnn3C)c2C)cc1", "Relation symbol": "=", "pEC50": 5.32}
{"Compound": "CCc1ccc(N(CC)c2ncnc3nc[nH]c23)cc1", "Relation symbol": "=", "pEC50": 5.22}
{"Compound": "CC1=NC(=O)NC(c2ccc(Cl)cc2)C1C(=O)OCc1ccc2c(c1)OCO2 (configuration not stated)", "Relation symbol": "<", "pEC50": 7.52}
{"Compound": "Clc1ccccc1C1=Nn2c(nnc2-c2ccncc2)SC1", "Relation symbol": "=", "pEC50": 5.46}
{"Compound": "CCOC(=O)/C=C/S(=O)(=O)c1ccc(NC(C)=O)cc1", "Relation symbol": "<", "pEC50": 5.52}

###

# Subject of test: Sphingosine 1-phosphate receptor 1 (Homo sapiens)
# Experiment summary: direct activation of human S1P1 – cell-based, agonist mode, 60K MLSMR set, dose response (AID 468)
pEC50: −log10 of the molar value.

{"Compound": "CCN=c1scc(-c2ccc3c(c2)NC(=O)CO3)n1N=C1CCCC1 [MLS000054638]", "Subject of test": "Sphingosine 1-phosphate receptor 1 (Homo sapiens)", "Relation symbol": "=", "pEC50": 5.07}
{"Compound": "Cc1noc(/C=C/N(C)C)c1S(=O)(=O)N1CCN(c2ccccc2)CC1", "Subject of test": "Sphingosine 1-phosphate receptor 1 (Homo sapiens)", "Relation symbol": "<", "pEC50": 4.02}
{"Compound": "COC(=O)c1cc(CSc2nnc(-c3ccccc3)c(-c3ccccc3)n2)oc1C", "Subject of test": "Sphingosine 1-phosphate receptor 1 (Homo sapiens)", "Relation symbol": "=", "pEC50": 5.76}
{"Compound": "O=C(Nc1ncc(Br)s1)C(Cc1ccccc1)n1cccc1 (stereo not given) [MLS000119027]", "Subject of test": "Sphingosine 1-phosphate receptor 1 (Homo sapiens)", "Relation symbol": "=", "pEC50": 5.65}
{"Compound": "CCOC(=O)C1C(=O)C=C(c2ccc(OC)cc2)CC1c1ccco1 (stereo not given)", "Subject of test": "Sphingosine 1-phosphate receptor 1 (Homo sapiens)", "Relation symbol": "=", "pEC50": 5.46}
{"Compound": "CCOC(=O)c1cccc2c1-c1ccccc1C2N=O (stereo not given)", "Subject of test": "Sphingosine 1-phosphate receptor 1 (Homo sapiens)", "Relation symbol": "=", "pEC50": 4.89}
{"Compound": "CCOc1ccc(C(=O)Nc2c(C(N)=O)oc3ccccc23)cc1", "Subject of test": "Sphingosine 1-phosphate receptor 1 (Homo sapiens)", "Relation symbol": "=", "pEC50": 5.39}
{"Compound": "O=C(c1cc(-c2ccccc2)on1)N1CCN(Cc2ccc3c(c2)OCO3)CC1", "Subject of test": "Sphingosine 1-phosphate receptor 1 (Homo sapiens)", "Relation symbol": "<", "pEC50": 4.52}
{"Compound": "Cc1cc(C=Nn2cnnc2)c(C)n1-c1ccc(OCc2ccccc2F)cc1 [MLS000112180]", "Subject of test": "Sphingosine 1-phosphate receptor 1 (Homo sapiens)", "Relation symbol": "=", "pEC50": 5.96}
{"Compound": "Cn1ncnc2c(=O)n(C)c(=O)nc1-2", "Subject of test": "Sphingosine 1-phosphate receptor 1 (Homo sapiens)", "Relation symbol": "=", "pEC50": 5.85}
